B1: human ICOS ectodomain (residues 21-138), untagged, disulfide-linked homodimer [human] / human ICOS-L ectodomain (residues 19-248), His-tagged, immobilised on Ni-NTA biosensors [human] (parent)
chain 1: EINGSANYEMFIFHNGGVQILCKYPDIVQQFKMQLLKGGQILCDLTKTKGSGNTVSIKSLKFCHSQLSNNSVSFFLYNLDHSHANYYFCNLSIFDPPPFKVTLTGGYLHIYESQLCCQ
chain 2: DTQEKEVRAMVGSDVELSCACPEGSRFDLNDVYVYWQTSESKTVVTYHIPQNSSLENVDSRYRNRALMSPAGMLRGDFSLRLFNVTPQDEQKFHCLVLSQSLGFQEVLSVEVTLHVAANFSVPVVSAPHSPSQDELTFTCTSINGYPRPNVYWINKTDNSLLDQALQNDTVFLNMRGLYDVVSVLRIARTPSVNIGCCIENVLLQQNLTVGSQTGNDIGERDKITENPVS

variants of: B1; experiment: BLI; details: with human ICOS-L ectodomain (residues 19-248), parent: 9.8 nM, read off a plot
Readout Name: Kd (nM)
Numbers only, in nM.

Enquiry: Would you kindly share the measured Kd for chain 1 EINGSANYEMFIFHNGGVQILCKYPDIVQQFKMQLLKGGQILCDLTKTKGSGNTVSIKSLKFCHSQLSNNSVSFFLYNLDHSHANYYFCQLSIFDPPPFKVTLTGGYLHIYESQLCCQ ?
Return: 2.7

Origin of measurements: paper PMC7545189
